Assay: Half life in Balb/c mouse at 10 mg/kg, po qd
Settings: in vivo
PROPERTY NAME: half-life (h)

| SMILES STRING | MEASURED NUMBER |
| --- | --- |
| Cc1cc(OCc2nc(-c3ccc(OC(C)C)cc3)c(-c3cccc(OC(F)(F)F)c3)s2)ccc1OCC(=O)O | 3.2 |

A = COc1ccc(-c2nc(COc3ccc(OCC(=O)O)c(C)c3)sc2-c2ccc(OC(F)(F)F)cc2)cn1
B = COc1ccc(-c2nc(COc3ccc(OCC(=O)O)c(C)c3)oc2-c2ccc(OC(F)(F)F)cc2)cn1
// compare: A vs B , metric half-life, want the smaller Use the label to indicate which entry you chose.
B

---

EC50 values for the molecules below.
Molecular target: Peroxisome proliferator-activated receptor alpha (Homo sapiens, UniProt Q07869)
Sequence (Q07869 whole entry): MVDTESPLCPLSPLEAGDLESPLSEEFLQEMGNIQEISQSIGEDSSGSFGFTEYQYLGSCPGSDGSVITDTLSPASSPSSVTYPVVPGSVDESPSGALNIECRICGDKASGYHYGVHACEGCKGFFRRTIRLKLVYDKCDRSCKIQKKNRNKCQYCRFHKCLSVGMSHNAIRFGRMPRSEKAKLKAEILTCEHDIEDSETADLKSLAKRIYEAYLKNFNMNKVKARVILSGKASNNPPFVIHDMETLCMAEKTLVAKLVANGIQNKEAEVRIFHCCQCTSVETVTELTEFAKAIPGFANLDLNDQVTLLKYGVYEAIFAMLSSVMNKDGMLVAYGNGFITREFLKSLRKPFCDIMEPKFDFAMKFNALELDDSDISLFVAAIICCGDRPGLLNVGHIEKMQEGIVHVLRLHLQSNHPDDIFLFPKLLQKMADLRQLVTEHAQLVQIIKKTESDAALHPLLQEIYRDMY
Assay: Agonist activity at human PPARalpha ligand binding domain expressed in human 293T cells co-transfected with Gal4-DBD by luciferase transactivation assay
Type: cell-based
Conditions: read-out: EC50

Given Cc1cc(OCc2nc(-c3ccc(OC(C)C)cc3)c(-c3ccc(OC(F)(F)F)cc3)o2)ccc1OCC(=O)O , state its recorded EC50.
2.6 µM

Consider next the molecule COc1ccc(-c2nc(SCCCOc3ccc(OCC(=O)O)c(C)c3)sc2-c2ccc(OC)cc2)cc1 in the same way.
5.25 µM

Consider next the molecule Cc1cc(OCc2nc(-c3ccccc3)c(-c3ccc(Cl)cc3)s2)ccc1OCC(=O)O in the same way.
> 10 µM

---

Form: system (Peroxisome proliferator-activated receptor delta (Homo sapiens, UniProt Q03181)), quantity (pEC50), values below.
pEC50: −log10 of the molar value.
PROPERTY NAME: pEC50

| SMILES STRING | MEASURED TARGET | MEASURED NUMBER |
| --- | --- | --- |
| COc1ccc(-c2nc(COc3ccc(OCC(=O)O)c(C)c3)sc2-c2ccc(Cl)nc2)cc1 | Peroxisome proliferator-activated receptor delta (Homo sapiens, UniProt Q03181) | 6.06 |

1 = CCCc1ccc(-c2sc(COc3ccc(OCC(=O)O)c(C)c3)nc2-c2ccc(OC(C)C)cc2)cc1
2 = COc1ccc(-c2nc(COc3ccc(CC(=O)O)c(C)c3)sc2-c2ccc(C(F)(F)F)cc2)cc1
Higher pEC50: 1 or 2 ? Use the label to indicate which entry you chose.
1
